Listing of recorded growth by entry.
- System: E. coli TESEC Mtb DapB
- Assay Overview: growth (OD600 after 10 h); higher = more growth (less inhibition)
- Experimental Setup: arabinose induction (level): High; compound 0.1 mM; raw OD600 reference: median of DMSO wells […], cell-free background 0.041
Form: value (number only, do not type unit).

Example results:
COCC1=C(C(=O)OC(C)OC(=O)OC(C)C)N2C(=O)[C@@H](NC(=O)/C(=N\OC)c3csc(N)n3)[C@H]2SC1 (some centres undefined); 0.202
COc1cc(-c2ccc(=O)[nH]n2)ccc1OC(F)F; 0.16
O=C1Nc2ccc(Cl)cc2[C@@](C#CC2CC2)(C(F)(F)F)O1; 0.0481

What value of growth on E. coli TESEC Mtb DapB does C[C@]1(Cn2ccnn2)[C@H](C(=O)O)N2C(=O)C[C@H]2S1(=O)=O have? 0.195
